Data credit: patent US20250236673A1

# assay target: T1, recombinant human CEACAM5 (human, UniProt P06731 35-685, limits assumed)
# T1 construct: Immobilised by amine coupling on a CM5 chip
# T1 sequence (looked up): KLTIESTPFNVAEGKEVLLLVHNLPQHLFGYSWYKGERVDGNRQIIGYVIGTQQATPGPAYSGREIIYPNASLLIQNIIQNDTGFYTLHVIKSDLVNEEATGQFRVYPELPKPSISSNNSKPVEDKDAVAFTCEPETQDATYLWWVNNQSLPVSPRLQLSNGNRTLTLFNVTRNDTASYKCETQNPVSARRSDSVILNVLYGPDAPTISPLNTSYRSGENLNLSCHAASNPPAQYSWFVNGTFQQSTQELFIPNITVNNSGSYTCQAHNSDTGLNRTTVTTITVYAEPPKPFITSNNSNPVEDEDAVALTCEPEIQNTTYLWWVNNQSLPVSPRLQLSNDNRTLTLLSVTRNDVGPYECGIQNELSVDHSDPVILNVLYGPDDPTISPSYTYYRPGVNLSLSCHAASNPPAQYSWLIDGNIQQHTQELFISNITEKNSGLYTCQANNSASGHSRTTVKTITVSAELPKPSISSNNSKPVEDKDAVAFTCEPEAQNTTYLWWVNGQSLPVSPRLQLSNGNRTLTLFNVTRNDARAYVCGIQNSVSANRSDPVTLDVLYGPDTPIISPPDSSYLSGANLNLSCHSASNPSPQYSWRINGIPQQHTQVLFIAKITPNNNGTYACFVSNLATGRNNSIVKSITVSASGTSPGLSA
# experiment summary: SPR Biacore 8K+, CEACAM5 amine-coupled on CM5, ISVD analyte, 1:1 fit
property name: koff
The answer should read as a number with its unit following.

[[record]]
binder = "T028501799 (VHH, K64A vs precursor T028501789; also called A0315007E07(K64A)) VHH: EVQLVESGGGVVQPGGSLRLSCAASGLTFSTYTMGWFRQAPGKEREFVAAIIWSGSNTYYADSVAGRFTISRDNAKNTVYLQMNSLRPEDTALYYCAAQHFGPIGLTTRGYHYWGQGTLVTVSS"
endpoint_value = "0.000976 s⁻¹"


Next:
In one line, give reported koff of the entry T028501797 (VHH, K64R vs precursor T028501789; also called A0315007E07(K64R)) VHH: EVQLVESGGGVVQPGGSLRLSCAASGLTFSTYTMGWFRQAPGKEREFVAAIIWSGSNTYYADSVRGRFTISRDNAKNTVYLQMNSLRPEDTALYYCAAQHFGPIGLTTRGYHYWGQGTLVTVSS . 0.00107 s⁻¹
